Entries annotated with measured MIC Staphylococcus aureus-SMITH (GC 4543)
- Tested on: Staphylococcus sp.
- assay-procedure: In vitro antibacterial evaluation: minimum inhibitory concentration (MIC), broth dilution method
- Format: cell-based
- experimental-conditions: strain SMITH GC 4543; broth dilution, 18 hours at 35° C.
Just the number please, in µg/mL, no unit attached.

State, in one line, measured MIC Staphylococcus aureus-SMITH (GC 4543) of CC(c1ccccc1)C1NC(=O)CNC(=O)C(CO)NC(=O)C(CC2CNC(=N)N2C2OC(CO)C(O)C(O)C2O)NC(=O)C(CC2CNC(=N)N2)NC(=O)C(Cc2ccc3oc(-c4ccc5c(c4)Cc4ccccc4-5)nc3c2)NC1=O (stereo not shown)
2

State, in one line, measured MIC Staphylococcus aureus-SMITH (GC 4543) of COc1ccc(Oc2cccc(-c3nc4cc(CC5NC(=O)C(C(C)c6ccccc6)NC(=O)CNC(=O)C(CO)NC(=O)C(C(O)C6CNC(=N)N6C6OC(CO)C(O)C(O)C6O)NC(=O)C(C(O)C6CNC(=N)N6)NC5=O)ccc4o3)c2)cc1 (stereo not shown)
8

State, in one line, measured MIC Staphylococcus aureus-SMITH (GC 4543) of CCCCCCCN1CC(C(O)C2NC(=O)C(C(O)C3CNC(=N)N3)NC(=O)C(Cc3ccc(OC4OC(CO)C(OC5OC6COC7(OC6C(O)C5O)C5CC6CC(C5)CC7C6)C(O)C4O)cc3)NC(=O)C(C(C)c3ccccc3)NC(=O)CNC(=O)C(CO)NC2=O)N(C2OC(CO)C(O)C(O)C2O)C1=N (stereo not shown)
2

State, in one line, measured MIC Staphylococcus aureus-SMITH (GC 4543) of CC(c1ccccc1)C1NC(=O)CNC(=O)C(CO)NC(=O)C(C(O)C2CNC(=N)N2C2OC(CO)C(O)C(O)C2O)NC(=O)C(C(O)C2CNC(=N)N2)NC(=O)C(Cc2ccc3oc(C=C(c4ccccc4)c4ccccc4)nc3c2)NC1=O (stereo not shown)
16

###

Entries annotated with measured MIC Staphylococcus aureus (GC 4544)
- System: Staphylococcus sp.
- assay-procedure: In vitro antibacterial evaluation: minimum inhibitory concentration (MIC), broth dilution method
- Type: cell-based
- experimental-conditions: Staphylococcus aureus (GC 4544); 18 hours at 35° C.
Just the number please, in µg/mL, no unit attached.

Here are 2 compounds together with their reported answers.
CC(c1ccccc1)C1NC(=O)CNC(=O)C(CO)NC(=O)C(C(O)C2CNC(=N)N2C2OC(CO)C(O)C(O)C2O)NC(=O)C(C(O)C2CNC(=N)N2)NC(=O)C(Cc2ccc(OC3OC(CO)C(OC4OC(COCC=Cc5ccc(N(C)C)cc5)C(O)C(O)C4O)C(O)C3O)cc2)NC1=O (centres unmarked) [Example 243] : 64
CC(C)CC(=O)OC1C(OC2C(CO)OC(Oc3ccc(CC4NC(=O)C(C(C)c5cccc(F)c5)NC(=O)CNC(=O)C(CO)NC(=O)C(C(O)C5CNC(=N)N5C5OC(CO)C(O)C(O)C5O)NC(=O)C(C(O)C5CNC(=N)N5)NC4=O)cc3)C(O)C2O)OC(CO)C(O)C1O (centres unmarked) [Example 264a] : 8

State, in one line, measured MIC Staphylococcus aureus (GC 4544) of CC(C)CC(=O)OC1C(O)C(CO)OC(OC2C(CO)OC(Oc3ccc(CC4NC(=O)C(C(C)c5cccs5)NC(=O)CNC(=O)C(CO)NC(=O)C(C(O)C5CNC(=N)N5C5OC(CO)C(O)C(O)C5O)NC(=O)C(C(O)C5CNC(=N)N5)NC4=O)cc3)C(O)C2O)C1O (centres unmarked) [Example 265b]
8

State, in one line, measured MIC Staphylococcus aureus (GC 4544) of CC(C)CCC(=O)OC1C(OC2C(CO)OC(Oc3ccc(CC4NC(=O)C(C(C)c5ccccc5)NC(=O)CNC(=O)C(CO)NC(=O)C(C(O)C5CNC(=N)N5C5OC(CO)C(O)C(O)C5O)NC(=O)C(C(O)C5CNC(=N)N5)NC4=O)cc3)C(O)C2O)OC(CO)C(O)C1O (centres unmarked) [Example 270a]
4

###

- Test system: Enterococcus sp.
- assay-procedure: In vitro antibacterial evaluation: minimum inhibitory concentration (MIC), broth dilution method
- Format: cell-based
- experimental-conditions: broth dilution, 5×10^5 CFU/mL, 18 hours at 35° C.
measured-attribute: MIC Enterococccus faecium (GC 2243) (µg/mL)
Just the number please, in µg/mL, no unit attached.

Here are 6 compounds together with their reported answers.
N=C1NCC(C(O)C2NC(=O)C(Cc3ccc(OC4OC(CO)C(OC5OC6COC7(OC6C6OC8(OC56)C5CC6CC(C5)CC8C6)C5CC6CC(C5)CC7C6)C(O)C4O)cc3)NC(=O)C(CC3CCCCC3)NC(=O)CNC(=O)C(CO)NC(=O)C(C(O)C3CNC(=N)N3C3OC(CO)C(O)C(O)C3O)NC2=O)N1 (stereo not drawn) [Example 106b] : 8
CC(c1ccccc1)C1NC(=O)CNC(=O)C(CO)NC(=O)C(C(O)C2CNC(=N)N2C2OC(CO)C(O)C(O)C2O)NC(=O)C(C(O)C2CNC(=N)N2)NC(=O)C(Cc2ccc(OC3OC(CO)C(OC4OC5COC(CC(C)(C)C)OC5C(O)C4O)C(O)C3O)cc2)NC1=O (stereo not drawn) : 4
COC1CCC2(C)C(CCC3C2CCC2(C)C(C(C)CCC4OCC5OC(OC6C(CO)OC(Oc7ccc(CC8NC(=O)C(C(C)c9ccccc9)NC(=O)CNC(=O)C(CO)NC(=O)C(C(O)C9CNC(=N)N9C9OC(CO)C(O)C(O)C9O)NC(=O)C(C(O)C9CNC(=N)N9)NC8=O)cc7)C(O)C6O)C(O)C(O)C5O4)CCC32)C1 (stereo not drawn) : 8
CC(c1ccccc1)C1NC(=O)CNC(=O)C(CO)NC(=O)C(C(O)C2CNC(=N)N2C2OC(CO)C(O)C(O)C2O)NC(=O)C(C(O)C2CNC(=N)N2)NC(=O)C(Cc2ccc(OC3OC(CO)C(OC4OC(COC(=O)OCc5ccccc5)C(O)C(O)C4O)C(O)C3O)cc2)NC1=O (stereo not drawn) [Example 101a] : 16
CC(c1ccccc1)C1NC(=O)CNC(=O)C(CO)NC(=O)C(C(O)C2CNC(=N)N2C2OC(CO)C(O)C(O)C2O)NC(=O)C(C(O)C2CNC(=N)N2)NC(=O)C(Cc2ccc(OC3OC(CO)C(OC4OC5COC(c6ccsc6)OC5C(O)C4O)C(O)C3O)cc2)NC1=O (stereo not drawn) : 8
CC(c1ccccc1)C1NC(=O)CNC(=O)C(CO)NC(=O)C(C(O)C2CNC(=N)N2C2OC(CO)C(O)C(O)C2O)NC(=O)C(C(O)C2CNC(=N)N2)NC(=O)C(Cc2ccc(OC3OC(CO)C(OC4OC5COC(Cc6ccc(F)cc6)OC5C(O)C4O)C(O)C3O)cc2)NC1=O (stereo not drawn) : 2

Next, consider the following compound.
State, in one line, measured MIC Enterococccus faecium (GC 2243) of CC(c1ccccc1)C1NC(=O)CNC(=O)C(CO)NC(=O)C(C(O)C2CNC(=N)N2C2OC(CO)C(O)C(O)C2O)NC(=O)C(C(O)C2CNC(=N)N2)NC(=O)C(Cc2ccc(OC3OC(CO)C(OC4OC5COC(C67CC8CC(CC(C8)C6)C7)OC5C(O)C4O)C(O)C3O)cc2)NC1=O (stereo not drawn)
4

###

- Tested on: Escherichia coli
- assay-procedure: In vitro antibacterial evaluation: minimum inhibitory concentration (MIC), broth dilution method
- Type: cell-based
- experimental-conditions: 5×10^5 CFU/mL, 18 hours at 35° C.
Entries annotated with measured MIC Escherichia coli (ATCC 25922)
Just the number please, in µg/mL, no unit attached.

Here are 3 compounds together with their reported answers.
CC(C)=CCCC(C)CC1OCC2OC(OC3C(CO)OC(Oc4ccc(CC5NC(=O)C(C(C)c6ccccc6)NC(=O)CNC(=O)C(CO)NC(=O)C(C(O)C6CNC(=N)N6C6OC(CO)C(O)C(O)C6O)NC(=O)C(C(O)C6CNC(=N)N6)NC5=O)cc4)C(O)C3O)C(O)C(O)C2O1 (stereo not shown) : 64
CCC(CC)C1OCC2OC(OC3C(CO)OC(Oc4ccc(CC5NC(=O)C(C(C)c6ccccc6)NC(=O)CNC(=O)C(CO)NC(=O)C(C(O)C6CNC(=N)N6C6OC(CO)C(O)C(O)C6O)NC(=O)C(C(O)C6CNC(=N)N6)NC5=O)cc4)C(O)C3O)C(O)C(O)C2O1 (stereo not shown) : 32
CCCC(CCC)C(=O)OCC1OC(OC2C(CO)OC(Oc3ccc(CC4NC(=O)C(C(C)c5ccccc5)NC(=O)CNC(=O)C(CO)NC(=O)C(C(O)C5CNC(=N)N5C5OC(CO)C(O)C(O)C5O)NC(=O)C(C(O)C5CNC(=N)N5)NC4=O)cc3)C(O)C2O)C(O)C(O)C1O (stereo not shown) [Example 99c] : 64

Next, consider the following compound.
State, in one line, measured MIC Escherichia coli (ATCC 25922) of CCCC(C)C1OCC2OC(OC3C(CO)OC(Oc4ccc(CC5NC(=O)C(C(C)c6ccccc6)NC(=O)CNC(=O)C(CO)NC(=O)C(C(O)C6CNC(=N)N6C6OC(CO)C(O)C(O)C6O)NC(=O)C(C(O)C6CNC(=N)N6)NC5=O)cc4)C(O)C3O)C(O)C(O)C2O1 (stereo not shown)
32
